I'd appreciate it if you could supply log10(IC50) values for the items below.
# Species: Homo sapiens
# Assay Procedure: In vitro inhibition of histamine release from human basophils
# Format: functional, organism-based
# Test Context: Homo sapiens
// stored as log10 of IC50 expressed in nM

// query Sample NS(=O)(=O)c1ccc(Nc2nccc(-c3ccccn3)n2)cc1 — what was its log10(IC50)?
// result 3.66

// query What do you have for c1cc(-c2ccnc(Nc3ccc(-n4ccnc4)cc3)n2)ccn1 ?
// result 3.88

// query What do you have for CCN(CC)CCOc1cccc(Nc2nccc(-c3ccncc3)n2)c1 ?
// result 2.78

// query What do you have for CCc1cccc(Nc2nccc(-c3ccccn3)n2)c1 ?
// result 3.15

// query What do you have for CN(C)c1ccc(Nc2nccc(-c3ccco3)n2)cc1 ?
// result 3.28

// query What do you have for COc1cccc(Nc2nccc(-c3ccsc3)n2)c1 ?
// result 3.26

// query What do you have for CC1CCN(c2cccc(Nc3nccc(-c4cccs4)n3)c2)CC1 ?
// result 3.54

// query What do you have for CCN(CC)CCCOc1ccc(Nc2nccc(-c3ccncc3)n2)cc1 ?
// result 3.11

Provenance of the data: ChEMBL document CHEMBL1126800
